Target: T1, human TPO receptor (MPL) expressed on Ba/F3 cells (human, UniProt P40238 26-635)
T1 sequence (looked up): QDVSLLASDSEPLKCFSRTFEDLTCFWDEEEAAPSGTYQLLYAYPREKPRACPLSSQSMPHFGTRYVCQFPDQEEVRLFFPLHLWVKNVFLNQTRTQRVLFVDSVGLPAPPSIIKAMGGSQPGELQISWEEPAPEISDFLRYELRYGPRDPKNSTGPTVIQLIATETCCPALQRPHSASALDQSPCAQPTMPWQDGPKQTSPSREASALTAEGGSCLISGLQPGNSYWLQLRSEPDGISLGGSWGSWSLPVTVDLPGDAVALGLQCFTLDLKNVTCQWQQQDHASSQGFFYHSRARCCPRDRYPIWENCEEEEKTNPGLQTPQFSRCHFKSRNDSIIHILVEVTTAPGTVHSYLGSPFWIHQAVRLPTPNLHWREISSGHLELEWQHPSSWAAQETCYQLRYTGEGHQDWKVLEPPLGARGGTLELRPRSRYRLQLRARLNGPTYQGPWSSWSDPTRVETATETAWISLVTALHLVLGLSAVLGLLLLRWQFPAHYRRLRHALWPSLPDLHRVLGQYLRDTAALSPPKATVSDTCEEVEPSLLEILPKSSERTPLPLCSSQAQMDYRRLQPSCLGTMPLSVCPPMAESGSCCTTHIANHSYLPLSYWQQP
Test: cell-based or functional assay
parameter measured: ED50, TPO-like agonist activity (proliferation of BaF/mpl cells, WST-8) (µM)
Number in µM, nothing else.

{"columns": ["binder", "experimental value"],
 "data": [
  ["12B5Fab (Fab, V domains shown) VH: QVQLVQSGGGLVRPGGSLSLSCAVSGITLRTYGMHWVRQAPGKGLEWVAGISFDGRSEYYADSVQGRFTISRDSSKNTLYLQMNSLRAEDTAVYYCARGAHYGFDIWGQGTMVTVSS VL: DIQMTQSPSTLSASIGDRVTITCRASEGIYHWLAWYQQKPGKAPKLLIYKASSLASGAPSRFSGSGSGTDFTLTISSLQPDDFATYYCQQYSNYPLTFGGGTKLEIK", 34.7]
]}

Entry sc12B5 dimer (scFv) scFv: QVQLVQSGGGLVRPGGSLSLSCAVSGITLRTYGMHWVRQAPGKGLEWVAGISFDGRSEYYADSVQGRFTISRDSSKNTLYLQMNSLRAEDTAVYYCARGAHYGFDIWGQGTMVTVSSGGGGSGGGGSGGGGSDIQMTQSPSTLSASIGDRVTITCRASEGIYHWLAWYQQKPGKAPKLLIYKASSLASGAPSRFSGSGSGTDFTLTISSLQPDDFATYYCQQYSNYPLTFGGGTKLEIKDYKDDDDK , ED50, TPO-like agonist activity (proliferation of BaF/mpl cells, WST-8) reported as 0.0101
